- System: Trichoderma virens ATCC 9645
- assayProcedure: growth yield (OD600) relative to untreated control; higher = less growth inhibition
- conditionSummary: compound concentration: 100 uM; 72 h
Structures can show the parent of a compound that is named as a salt. Hit rate of the full screen: of about 1,300 compounds, about 75 (6%) showed an effect of 50% or more. The entries come from a sample that favours strong results as a whole.
experimentalEndpoint: growth yield (%)

molecule | experimentalEndpoint | assayValue
OC(CCN1CCCCC1)(c1ccccc1)C1CC2C=CC1C2 (configuration not stated) [Biperiden hydrochloride] | growth yield | 105
CCCCOc1cc(C(=O)OCCN(CC)CC)ccc1N [Benoxinate hydrochloride] | growth yield | 103
O=C1c2cccc3c2[C@H](CCC3)CN1[C@@H]1CN2CCC1CC2 [Palonosetron hydrochloride] | growth yield | 99
CN1CCCN=C1/C=C/c1cccc(O)c1 [Oxantel pamoate] | growth yield | 99.8
Nc1ncn(C2OC(CO)C(O)C2O)c(=O)n1 (configuration not stated) | growth yield | 88.4
N=C(N)N1CCc2ccccc2C1 [Debrisoquin sulfate] | growth yield | 102
CC(C)c1c(C(=O)Nc2ccccc2)c(-c2ccccc2)c(-c2ccc(F)cc2)n1CC[C@@H](O)C[C@@H](O)CC(=O)O | growth yield | 85.1
C#Cc1cccc(Nc2ncnc3cc(OCCOC)c(OCCOC)cc23)c1 | growth yield | 105
CCCCCNC(=N)N/N=C/c1c[nH]c2ccc(OC)cc12 [Tegaserod maleate] | growth yield | 3.88
CCC(C)(C)c1ccc(CC(C)CN2C[C@@H](C)O[C@@H](C)C2)cc1 (some centres not stated) [Amorolfine hydrochloride] | growth yield | 2.94
CN(C)[C@@H]1C(O)=C(C(=O)NCNCCCC[C@H](N)C(=O)O)C(=O)[C@@]2(O)C(O)=C3C(=O)c4c(O)cccc4[C@@](C)(O)[C@H]3C[C@@H]12 | growth yield | 73.8
CC=CC1=C(C(=O)O)N2C(=O)[C@@H](NC(=O)[C@H](N)c3ccc(O)cc3)[C@H]2SC1 | growth yield | 92.7
CN(CCOc1ccc(NS(C)(=O)=O)cc1)CCc1ccc(NS(C)(=O)=O)cc1 [Dofetilide] | growth yield | 98.7
CCCCc1oc2ccccc2c1C(=O)c1cc(I)c(OCCN(CC)CC)c(I)c1 [Amiodarone hydrochloride] | growth yield | 2.94
C[C@@H](c1ncncc1F)[C@](O)(Cn1cncn1)c1ccc(F)cc1F | growth yield | 2.41
CN(C)CCCSC(=N)N [Dimaprit dihydrochloride] | growth yield | 99.5
COc1ccc2[nH]cc(CCNC(C)=O)c2c1 | growth yield | 97.3

Values compiled from the supplement of paper PMC8007513.
